From: PubChem BioAssay (NCI)

System: IGROV1 ovarian
Experiment notes: NCI tumour cell line growth inhibition, 48 h

{"columns": ["Molecule", "GI50"],
 "data": [
  ["O=c1[nH]c2ccc(N=Cc3c(O)[nH]c4ccccc34)cc2[nH]1", "> 25000 nM"],
  ["COc1cnc2c(c1)C(=O)c1c-2n(CCCBr)c(=O)c2cc([N+](=O)[O-])ccc12", "163 nM"],
  ["COc1cc2c(cc1OCCCCCN1CCN(c3cc(=O)oc4ccccc34)CC1)N=C[C@@H]1CCCN1C2=O", "83 nM"],
  ["Cn1cc(C2=C(c3c4n(c5ccccc35)CCN(C(N)=S)C4)C(=O)NC2=O)c2ccccc21", "7820 nM"],
  ["Cc1cc(I)cc(CN(C)CCN2CCOCC2)c1O", "37200 nM"],
  ["CC/C=C\\C/C=C\\C[C@H]1C/C=C2/C(=O)C=C[C@@H]2C/C=C\\CCC(=O)O1", "1570 nM"],
  ["ClC1=C(Cl)C(Cl)=C(Cl)C1=Cc1ccccc1", "916 nM"],
  ["Cc1ccc(C)c(COc2cc(NC(=O)c3ccc4c(c3)OCO4)ccc2N(C)S(C)(=O)=O)c1", "237 nM"],
  ["Fc1ccc(-c2nnc3sc(-c4cc(Cl)cc(Cl)c4)nn23)cc1Cl", "> 100000 nM"],
  ["O=C(Nc1ccc(Oc2cccc(Cl)c2)c(Cl)c1)c1cnccn1", "363 nM"],
  ["CC(=O)OC1Oc2ccc(C)cc2-c2oc(=O)c(-c3cc4ccccc4oc3=O)cc21 (configuration not stated)", "4000 nM"],
  ["COc1ccc2c(c1OC)CO[C@@H]2[C@H]1c2c(c(Br)c3c(c2OC)OCO3)CCN1C", "8730 nM"],
  ["COc1cc(OC)cc(C2C(C#N)=C(N)Oc3c2ccc2ccc(O)cc32)c1 (configuration not stated)", "< 10 nM"],
  ["COc1ccc(CN2C(=O)C(Cl)=C(Nc3cccc(O)c3)C2=O)cc1", "591 nM"],
  ["CCC[CH2][Sn]([CH2]CCC)([O]C(=O)c1ccc(C)c(N)c1)[O]C(=O)c1ccc(C)c(N)c1", "1160 nM"],
  ["O=C(NC1CCC(Br)CC1)C1CCCC(S(=O)(=O)NC2CCCCC2)C1 (configuration not stated)", "9780 nM"],
  ["Cc1nc2ccccc2c(/C=C/c2ccc(Cl)cc2)c1C(=O)/C=C/c1ccc(F)cc1", "1150 nM"]
]}

* * *

System: HCC-2998 colon
Experiment notes: NCI tumour cell line growth inhibition, 48 h; in the data active = GI50 below about 0.43 µM; inactive = the rest
*1 amine or outer side, *2 acyl side, *3 side chain or, on linkers, in order; H or OH if unused. Where a SMILES comes first, the peptide text is derived from it. Bridges are numbered along the chain shown (N, C = ends). [ ]: non-standard residue; d: D form. The star is where a group is joined. Phe(3,5-F2) = N[C@@H](Cc1cc(F)cc(F)c1)C(=O)O; Pro(4R-Me) = C[C@H]1CN[C@H](C(=O)O)C1; aThr = C[C@H](O)[C@H](N)C(=O)O; Pip = O=C(O)[C@@H]1CCCCN1; X10 = Fc1cc(C2CC2)ccc1N*; Abu = CC[C@H](N)C(=O)O; CO = O=C([*:1])[*:2]
Outcome codes: 1.0 (active), 0.0 (inactive)

{"columns": ["Molecule", "Label value"],
 "data": [
  ["CCC(=C/[C@H](C)C/C=C/C(C)=C/[C@@H](C)C(=O)[C@@H](C)[C@H](O)[C@@H](C)CC)/C=C/[C@@H]1OC(=O)C=C[C@@H]1C", 1.0],
  ["Oc1ccc(-c2cn3ccsc3n2)cc1O", 0.0],
  ["COc1ccc(C(O)c2cc3c(N)c(C(=O)Nc4cccc(OC)c4)sc3nc2C)cc1 (configuration not stated)", 0.0],
  ["COc1cc(NC(=O)c2ccc(C(F)(F)F)nc2Nc2ccc(Cl)cc2C)cc(OC)c1OC", 0.0],
  ["O=C1Nc2ccccc2C1(c1c[nH]c2ccccc12)c1c[nH]c2ccccc12", 0.0],
  ["CC[C@@H]1NC(=O)[C@@H]2CCCCN2C(=O)[C@@H]2CCCN2C(=O)[C@@H](NC(=O)[C@H](Cc2cc(F)cc(F)c2)NC(=O)Nc2ccc(C3CC3)cc2F)[C@H](C)OC(=O)[C@@H]2C[C@@H](C)CN2C1=O ({X10-CO}-[Phe(3,5-F2)][aThr]P[Pip][Abu][Pro(4R-Me)]; ester 2-C)", 1.0],
  ["FC(F)(F)CNc1nccc(-c2cnn3ncccc23)n1", 0.0]
]}
